# reported pest or weed control at 125 g/ha; entries follow
System: giant foxtail (Setaria faberii)
Experiment: Test B pre-/postemergence plant response
Assay type: in vivo
Settings: Setaria faberi, pre-emergence, 240 h; Preemergence, 125 g ai/ha; 0 to 100 scale where 0 is no effect and 100 is complete control; read-out: Plant response rating, Foxtail, Giant
From the text: […]
Please answer in the form of a number followed by its unit of measurement.

Known pest or weed control at 125 g/ha results, listed for orientation:
SMILES CODE | REPORTED MEASUREMENT
FC(F)(F)c1ccnc(-c2ccccc2Oc2ncc(Cl)cn2)c1 | 40%
FC(F)(F)c1cnc(Oc2ccccc2-c2cnc(Br)s2)nc1 | 0%
Cc1ccc(Oc2ncc(Cl)cn2)c(-c2ccnc(C(F)(F)F)c2)c1 | 20%

Turning to the following molecule.
For the molecule `FCc1cc(-c2ccccc2Oc2ncc(Cl)cn2)no1` , what pest or weed control at 125 g/ha is on record?
90%

====

System: barnyardgrass (Echinochloa crus-galli)
Test: Test B pre-/postemergence plant response
Assay type: in vivo
Details: 125 g ai/ha, postemergence; 0 to 100 scale, 0 no effect, 100 complete control
MEASURE NAME: Plant response rating, Barnyardgrass
Could you keep your reply to the number by itself?

Known Plant response rating, Barnyardgrass results, listed for orientation:
COMPOUND | STUDY SYSTEM | Plant response rating, Barnyardgrass
COc1cccc(Oc2ncc(Cl)cn2)c1-c1cc(C(F)F)on1 | barnyardgrass (Echinochloa crus-galli) | 90
FC(F)c1cc(-c2ccccc2Oc2ncc(Cl)cn2)ncn1 | barnyardgrass (Echinochloa crus-galli) | 0
Cn1nnnc1-c1ccccc1Oc1ncc(Cl)cn1 | barnyardgrass (Echinochloa crus-galli) | 0

For the compound `CC(=O)c1cc(-c2ccccc2Oc2ncc(Cl)cn2)no1` , what Plant response rating, Barnyardgrass is on record?
20

For the compound `FC(F)c1ccc(-c2ccccc2Oc2ncc(Cl)cn2)o1` , what Plant response rating, Barnyardgrass is on record?
0

For the compound `FC(F)(F)c1cc(-c2ccccc2Oc2ncc(Cl)cn2)ncn1` , what Plant response rating, Barnyardgrass is on record?
20

For the compound `N#Cc1ccnc(-c2ccccc2Oc2ncc(Cl)cn2)c1` , what Plant response rating, Barnyardgrass is on record?
20

For the compound `FC(F)(F)c1cc(-c2c(Cl)cccc2Oc2ncc(Br)cn2)on1` , what Plant response rating, Barnyardgrass is on record?
100

For the compound `FC(F)(F)c1ccnc(-c2ccccc2Oc2ncc(Br)cn2)c1` , what Plant response rating, Barnyardgrass is on record?
0

For the compound `COc1cccc(Oc2ncc(Cl)cn2)c1-c1cc(C(F)(F)F)no1` , what Plant response rating, Barnyardgrass is on record?
60

For the compound `Clc1cnc(Oc2ccccc2-c2cc(Cl)cnn2)nc1` , what Plant response rating, Barnyardgrass is on record?
0

For the compound `CC(C)(C)c1cc(-c2ccccc2Oc2ncc(Cl)cn2)no1` , what Plant response rating, Barnyardgrass is on record?
10

For the compound `Fc1ccnc(-c2ccccc2Oc2ncc(Cl)cn2)c1` , what Plant response rating, Barnyardgrass is on record?
10

For the compound `Clc1cnc(Oc2ccccc2-c2cccs2)nc1` , what Plant response rating, Barnyardgrass is on record?
0

For the compound `Clc1cnc(Oc2ccccc2-c2cc(C(Cl)Cl)on2)nc1` , what Plant response rating, Barnyardgrass is on record?
20

For the compound `N#Cc1cccc(Oc2ncc(F)cn2)c1-c1ccc(Cl)cn1` , what Plant response rating, Barnyardgrass is on record?
0

For the compound `FC(F)(F)c1cc(-c2c(Cl)cccc2Oc2ncc(Cl)cn2)no1` , what Plant response rating, Barnyardgrass is on record?
10

For the compound `Cn1nc(-c2c(Br)cccc2Oc2ncc(Cl)cn2)cc1C(F)(F)F` , what Plant response rating, Barnyardgrass is on record?
0

For the compound `Clc1cnc(Oc2ccccc2-c2cnccn2)nc1` , what Plant response rating, Barnyardgrass is on record?
0

For the compound Cc1cc(-c2ccccc2Oc2ncc(Cl)cn2)no1 [Compound 153] , what Plant response rating, Barnyardgrass is on record?
0

====

Tested on: large (Lg) crabgrass (Digitaria sanguinalis)
Experiment: Test D pre-/postemergence plant response
Assay type: in vivo
Conditions: Postemergence, 62 g ai/ha; scale 0 to 100, 0 no effect, 100 complete control
# reported Plant response rating, Crabgrass, Large; entries follow
Could you keep your reply to the number by itself?

Known Plant response rating, Crabgrass, Large results, listed for orientation:
COMPOUND | REPORTED MEASUREMENT
FCc1cc(-c2c(Br)cccc2Oc2ncc(Cl)cn2)no1 | 10
Fc1ccc(Oc2ncc(Cl)cn2)c(-c2cc(C(F)F)on2)c1Cl | 5
Cc1cc(-c2ccccc2Oc2ncc(Cl)cn2)on1 | 5
Fc1cccc(Oc2ncc(Cl)cn2)c1-c1cc(C(F)(F)F)no1 | 35
FC(F)(F)c1cc(-c2c(Br)cccc2Oc2ncc(Cl)cn2)no1 | 5

For the compound FC(Cl)c1cc(-c2ccccc2Oc2ncc(Cl)cn2)no1 (stereo not shown) , what Plant response rating, Crabgrass, Large is on record?
25

For the compound `FC(F)(F)c1cc(-c2c(Cl)cccc2Oc2ncc(Cl)cn2)no1` , what Plant response rating, Crabgrass, Large is on record?
10

For the compound `Clc1cnc(Oc2ccccc2-c2cc(C3CC3)on2)nc1` , what Plant response rating, Crabgrass, Large is on record?
5

For the compound `Fc1cccc(Oc2ncc(Br)cn2)c1-c1cc(C(F)F)on1` , what Plant response rating, Crabgrass, Large is on record?
15

For the compound `Cc1cc(-c2ccccc2Oc2ncc(Cl)cn2)no1` , what Plant response rating, Crabgrass, Large is on record?
5

====

Tested on: barnyardgrass (Echinochloa crus-galli)
Assay: Test B pre-/postemergence plant response
Type: in vivo
Conditions: Preemergence, 125 g ai/ha; 0 to 100 scale (0 no effect, 100 complete control)
MEASURE NAME: Barnyardgrass plant response rating

MOLECULE | MEASURE NAME | REPORTED MEASUREMENT
N#Cc1cccc(Oc2ncc(F)cn2)c1-c1ccc(Cl)cn1 | Barnyardgrass plant response rating | 10

For the molecule `Clc1cnc(Oc2ccccc2-c2cnccn2)nc1` , what Barnyardgrass plant response rating is on record?
0

For the molecule FC(c1cc(-c2ccccc2Oc2ncc(Cl)cn2)no1)C(F)(F)F (centres unmarked) , what Barnyardgrass plant response rating is on record?
70

For the molecule `CC(F)(F)c1cc(-c2ccccc2Oc2ncc(Cl)cn2)on1` , what Barnyardgrass plant response rating is on record?
70

For the molecule `Cn1ccnc1-c1ccccc1Oc1ncc(Br)cn1` , what Barnyardgrass plant response rating is on record?
0

====

# reported Plant response rating, Ragweed; entries follow
Tested on: ragweed (common ragweed, Ambrosia elatior)
Assay: Test D pre-/postemergence plant response
Format: in vivo
Settings: Postemergence, 62 g ai/ha; scale 0 to 100, 0 no effect, 100 complete control
Could you keep your reply to the number by itself?

MOLECULE | Plant response rating, Ragweed
FC(F)(Br)c1cc(-c2ccccc2Oc2ncc(Cl)cn2)no1 [Compound 162] | 40
Cc1cc(-c2ccccc2Oc2ncc(Cl)cn2)on1 [Compound 58] | 65
FCc1cc(-c2c(F)cccc2Oc2ncc(Cl)cn2)no1 [Compound 57] | 60
FC(Cl)c1cc(-c2ccccc2Oc2ncc(Cl)cn2)no1 (stereo not drawn) [Compound 116] | 60
CC(F)(F)c1cc(-c2ccccc2Oc2ncc(Br)cn2)no1 [Compound 149] | 30

Turning to the following molecule.
For the molecule FC(F)(F)c1cc(-c2ccccc2Oc2ncc(Cl)cn2)ncn1 [Compound 54] , what Plant response rating, Ragweed is on record?
5

====

# reported pest or weed control at 16 g/ha; entries follow
Test system: field violet (Viola arvensis)
Assay: Test E pre-/postemergence plant response
Type: in vivo
Settings: post-emergence, 16 g ai/ha, Postemergence, scale 0 to 100, read-out: Plant response rating, Field Violet
Return type: number; implicit unit %.

Known pest or weed control at 16 g/ha results, listed for orientation:
COMPOUND | STUDY SYSTEM | pest or weed control at 16 g/ha, %
FC(F)(F)c1cc(-c2ccccc2Oc2ncc(Cl)cn2)no1 [Compound 200] | field violet (Viola arvensis) | 70
FC(F)c1cc(-c2ccccc2Oc2ncc(Br)cn2)no1 [Compound 62] | field violet (Viola arvensis) | 60

Give pest or weed control at 16 g/ha (field violet (Viola arvensis)) of the following compound: Fc1cccc(Oc2ncc(Cl)cn2)c1-c1cc(C(F)(F)F)on1 [Compound 168]
75

Give pest or weed control at 16 g/ha (field violet (Viola arvensis)) of the following compound: Fc1cccc(Oc2ncc(Cl)cn2)c1-c1cc(C(F)F)on1 [Compound 55]
65

====

System: wheat (Triticum aestivum)
Experiment: Test B pre-/postemergence plant response
Type: in vivo
Conditions: 125 g ai/ha, postemergence; 0 to 100 scale, 0 no effect, 100 complete control
# reported Plant response rating, Wheat; entries follow
Could you keep your reply to the number by itself?

Known Plant response rating, Wheat results, listed for orientation:
SMILES CODE | Plant response rating, Wheat
C=C(C)c1cc(-c2ccccc2Oc2ncc(Cl)cn2)on1 | 0
Clc1cnc(Oc2ccccc2-c2ccc(Br)s2)nc1 | 0
N#Cc1ccnc(-c2ccccc2Oc2ncc(Cl)cn2)c1 | 20
FC(F)(F)COCc1cc(-c2ccccc2Oc2ncc(Br)cn2)on1 | 0
FC(F)c1cc(-c2c(Cl)cccc2Oc2ncc(Br)cn2)on1 | 30
Clc1cnc(Oc2ccccc2-c2cc(Cl)ncn2)nc1 | 0
CC(C)n1nc(C(F)(F)F)cc1-c1c(C#N)cccc1Oc1ncc(Cl)cn1 | 0
C=C(C)c1cc(-c2ccccc2Oc2ncc(Br)cn2)on1 | 0

Turning to the following molecule.
For the molecule `N#Cc1cc(-c2ccccc2Oc2ncc(Cl)cn2)on1` , what Plant response rating, Wheat is on record?
0
